test-system: GDP-bound KRAS wild-type protein (Homo sapiens)
Sequence (P01116 whole entry): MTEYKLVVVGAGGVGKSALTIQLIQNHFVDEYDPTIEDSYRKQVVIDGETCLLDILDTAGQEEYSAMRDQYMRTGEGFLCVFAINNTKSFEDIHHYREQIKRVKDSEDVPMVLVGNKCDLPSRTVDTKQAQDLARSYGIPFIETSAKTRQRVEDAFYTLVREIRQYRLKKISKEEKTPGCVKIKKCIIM
measurement-notes: Binding to KRAS by surface plasmon resonance (SPR), Single Cycle Kinetics
stated-conditions: SPR, Single Cycle Kinetics, GDP-bound KRAS wild-type protein; read-out: KRAS KD
*1 amine or outer side, *2 acyl side, *3 side chain or, on linkers, in order; H or OH if unused. Where a SMILES comes first, the peptide text is derived from it. Bridges are numbered along the chain shown (N, C = ends). [ ]: non-standard residue; d: D form. The star is where a group is joined. hPhe(3-Cl-4-CF3) = N[C@@H](CCc1ccc(C(F)(F)F)c(Cl)c1)C(=O)O; NPrPhe(4-CF3) = CCCN[C@@H](Cc1ccc(C(F)(F)F)cc1)C(=O)O; NPrAsp = CCCN([C@@H](CC(=O)[*:3])C(=O)[*:2])[*:1]; NMeGly(cPent) = CN[C@H](C(=O)O)C1CCCC1; NMeNva = CCC[C@H](NC)C(=O)O; Morpholide = C1CN(*)CCO1; Ac4c = NC1(C(=O)O)CCC1; Sar = CNCC(=O)O
reported-property: Kd (nM)
A number alone suffices; assume nM.

Some compounds with recorded Kd:
CCO[C@@H]1C[C@H]2C(=O)NC3(CC(C)(C)C3)C(=O)N(C)[C@@H](C3CCCC3)C(=O)N(C)[C@H](C(=O)N(C)C)CC(=O)N(C)[C@H]3CCCCCCc4ccc(cc4)C[C@@H](C(=O)N(C)CC(=O)N[C@@H](CCc4ccc(Cl)c(Cl)c4)C(=O)N2C1)N1CC/C=C\C[C@@H](C1=O)N(C)C(=O)CN(C)C(=O)[C@H]([C@@H](C)CC)NC3=O [PP3071] = 0.12
C=CCC[C@H]1C(=O)N[C@@H]([C@@H](C)CC)C(=O)N(C)CC(=O)N(C)[C@H]2CCCCCN(C2=O)[C@@H](Cc2ccc(C(F)(F)F)cc2)C(=O)N(C)CC(=O)N[C@@H](CCc2cc(F)c(C(F)(F)F)c(F)c2)C(=O)N2C[C@H](OCC)C[C@H]2C(=O)N[C@](C)(CC=C)C(=O)N(C)[C@@H](C2CCCC2)C(=O)N(C)[C@H](C(=O)N2CCOCC2)CC(=O)N1C [PP0879] = 8.6
CCO[C@@H]1C[C@H]2C(=O)NC3(CCCC3)C(=O)N(C)[C@@H](C3CCCC3)C(=O)N(C)[C@H](C(=O)N(C)C)CC(=O)N(C)[C@@H](CC(C)C)C(=O)N[C@@H]([C@@H](C)CC)C(=O)N(C)CC(=O)N(C)[C@H]3C/C=C\CCN(C3=O)[C@@H](Cc3ccc(C(F)(F)F)cc3)C(=O)N(C)CC(=O)N[C@@H](CCc3cc(F)c(Cl)c(F)c3)C(=O)N2C1 [PP2269] = 0.38
CC[C@H](C)[C@@H]1NC(=O)[C@H](COC)N(C)C(=O)C[C@@H](C(=O)N2CCOCC2)N(C)C(=O)[C@H](C2CCCC2)N(C)C(=O)C2(CCC2)NC(=O)[C@@H]2C[C@@H](OC)CN2C(=O)[C@H](CCc2cc(F)c(C(F)(F)F)c(F)c2)NC(=O)CN(C)C(=O)[C@H](Cc2ccc(C(F)(F)F)cc2)N2CCCCC[C@@H](C2=O)N(C)C(=O)CN(C)C1=O [PP0837] = 0.19
CCC[C@H]1C(=O)N[C@@H]([C@@H](C)CC)C(=O)N(C)CC(=O)N(C)CC(=O)N(CCC)[C@@H](Cc2ccc(C(F)(F)F)cc2)C(=O)N(C)CC(=O)N[C@@H](CCc2ccc(C(F)(F)F)c(Cl)c2)C(=O)N2CCC[C@H]2C(=O)NC2(CCC2)C(=O)N(C)[C@@H](C2CCCC2)C(=O)N(CCC)[C@H](C(=O)N2CCOCC2)CC(=O)N1C [PP1954] ([NMeNva]I[Sar][Sar][NPrPhe(4-CF3)][Sar][hPhe(3-Cl-4-CF3)]P[Ac4c][NMeGly(cPent)][NPrAsp]-Morpholide; lactam N-11) = 0.77
CCCN(C)C(=O)[C@@H]1CC(=O)N(C)[C@@H](CC(F)(F)F)C(=O)N[C@@H]([C@@H](C)CC)C(=O)N(C)CC(=O)N(C)[C@H]2C/C=C\CCN(C2=O)[C@@H](Cc2ccc(C(F)(F)F)cc2)C(=O)N(C)CC(=O)N[C@@H](CCc2cc(F)c(C(F)(F)F)c(F)c2)C(=O)N2C[C@H](OCC)C[C@H]2C(=O)NC2(CC(F)(F)C2)C(=O)N(C)[C@@H](C2CCCC2)C(=O)N1C [PP1734] = 0.17
CCO[C@@H]1C[C@H]2C(=O)NC3(CC(C)(C)C3)C(=O)N(C)[C@@H](C(CC)CC)C(=O)N(C)[C@H](C(=O)N3CCCC3)CC(=O)N(C)[C@@H](C)C(=O)N[C@@H]([C@@H](C)CC)C(=O)N(C)CC(=O)N(C)[C@H]3C/C=C\CCN(C3=O)[C@@H](Cc3ccc(C)cc3)C(=O)N(C)CC(=O)N[C@@H](CCc3ccc(C(F)(F)F)c(Cl)c3)C(=O)N2C1 [PP2152] = 0.67
CCO[C@@H]1C[C@H]2C(=O)NC3(CCC3)C(=O)N(C)[C@@H](C3CCCC3)C(=O)N(C)[C@H](C(=O)N3CCOCC3)CC(=O)N(C)[C@@H](Cc3ccc(F)c(F)c3)C(=O)N[C@@H]([C@@H](C)CC)C(=O)N(C)CC(=O)N(C)[C@H]3CCCCCN(C3=O)[C@@H](Cc3ccc(C(F)(F)F)cc3)C(=O)N(C)CC(=O)N[C@@H](CCc3cc(F)c(C(F)(F)F)c(F)c3)C(=O)N2C1 [PP0928] = 1

Kd lookup needed for CCCC[C@H]1C(=O)N[C@@H]([C@@H](C)CC)C(=O)N(C)CC(=O)N(C)[C@H]2C/C=C\CCN(C2=O)[C@@H](Cc2ccc(C(F)(F)F)cc2)C(=O)N(C)CC(=O)N[C@@H](CCc2ccc(C(F)(F)F)c(Cl)c2)C(=O)N2C[C@H](OCC)C[C@H]2C(=O)NC2(CC(C)(C)C2)C(=O)N(C)[C@@H](C2CCCC2)C(=O)N(C)[C@H](C(=O)N(C)C)CC(=O)N1C [PP1750] , thanks. 0.069

Can you check CCO[C@@H]1C[C@H]2C(=O)NC3(CC(C)(C)C3)C(=O)N(C)[C@@H](C(CC)CC)C(=O)N(C)[C@H](C(=O)N(C)C)CC(=O)N(C)[C@@H](C(C)C)C(=O)N[C@@H]([C@@H](C)CC)C(=O)N(C)CC(=O)N(C)[C@H]3C/C=C\CCN(C3=O)[C@@H](Cc3ccc(C)cc3)C(=O)N(C)CC(=O)N[C@@H](CCc3ccc(Cl)c(Cl)c3)C(=O)N2C1 [PP2122] next? 1.4

Please answer likewise for CC[C@H](C)[C@@H]1NC(=O)[C@H](CC(C)C)N(C)C(=O)C[C@@H](C(=O)N(C)C)N(C)C(=O)[C@H](C2CCCC2)N(C)C(=O)C2(CCC2)NC(=O)[C@@H]2C[C@H](C)CN2C(=O)[C@H](CCc2cc(F)c(C(F)(F)F)c(F)c2)NC(=O)CN(C)C(=O)[C@H](Cc2ccc(C)cc2)N2CC/C=C\C[C@@H](C2=O)N(C)C(=O)CN(C)C1=O [PP1864] 0.064
